Please provide measured pIC50 for the entries that follow.
assaySystem: E. coli RNA polymerase σ^70 holoenzyme (Escherichia coli, UniProt P0A8T7+P0A8V2)
Sequence (P0A8T7 whole entry): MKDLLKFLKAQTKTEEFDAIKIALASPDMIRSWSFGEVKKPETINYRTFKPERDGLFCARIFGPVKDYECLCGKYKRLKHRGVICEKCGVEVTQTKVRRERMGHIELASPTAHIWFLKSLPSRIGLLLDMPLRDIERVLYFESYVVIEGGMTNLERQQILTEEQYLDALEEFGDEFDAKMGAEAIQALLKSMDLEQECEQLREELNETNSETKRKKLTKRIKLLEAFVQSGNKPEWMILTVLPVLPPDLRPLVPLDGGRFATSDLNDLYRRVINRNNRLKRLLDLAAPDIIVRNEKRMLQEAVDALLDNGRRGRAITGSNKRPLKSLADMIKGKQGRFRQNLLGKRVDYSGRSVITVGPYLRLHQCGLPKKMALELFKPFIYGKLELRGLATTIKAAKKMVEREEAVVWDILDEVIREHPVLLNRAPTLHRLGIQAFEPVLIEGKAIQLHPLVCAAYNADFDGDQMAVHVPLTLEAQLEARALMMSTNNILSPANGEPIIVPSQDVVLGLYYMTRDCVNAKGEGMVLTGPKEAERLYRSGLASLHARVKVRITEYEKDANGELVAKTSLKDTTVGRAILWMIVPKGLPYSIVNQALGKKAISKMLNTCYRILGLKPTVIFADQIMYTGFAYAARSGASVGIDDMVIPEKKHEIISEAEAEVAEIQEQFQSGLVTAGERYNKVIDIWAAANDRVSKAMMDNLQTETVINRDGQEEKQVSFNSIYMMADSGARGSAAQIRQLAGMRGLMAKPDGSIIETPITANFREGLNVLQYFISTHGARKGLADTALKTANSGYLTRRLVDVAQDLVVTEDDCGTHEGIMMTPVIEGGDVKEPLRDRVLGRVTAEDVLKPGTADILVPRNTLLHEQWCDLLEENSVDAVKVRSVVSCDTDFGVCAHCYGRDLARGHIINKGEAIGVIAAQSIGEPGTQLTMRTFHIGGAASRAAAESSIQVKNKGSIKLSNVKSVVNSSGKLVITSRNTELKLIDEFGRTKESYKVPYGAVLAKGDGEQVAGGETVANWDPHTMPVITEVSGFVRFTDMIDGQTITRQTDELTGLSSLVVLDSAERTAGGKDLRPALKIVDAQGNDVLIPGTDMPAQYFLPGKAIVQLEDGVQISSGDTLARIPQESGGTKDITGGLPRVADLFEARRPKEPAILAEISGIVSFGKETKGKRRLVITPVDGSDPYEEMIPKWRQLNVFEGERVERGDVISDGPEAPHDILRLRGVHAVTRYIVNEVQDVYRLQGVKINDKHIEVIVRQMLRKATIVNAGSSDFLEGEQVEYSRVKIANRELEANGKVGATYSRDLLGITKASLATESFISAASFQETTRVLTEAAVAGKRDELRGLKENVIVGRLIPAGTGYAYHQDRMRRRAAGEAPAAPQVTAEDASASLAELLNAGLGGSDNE
Sequence (P0A800 whole entry, further chain): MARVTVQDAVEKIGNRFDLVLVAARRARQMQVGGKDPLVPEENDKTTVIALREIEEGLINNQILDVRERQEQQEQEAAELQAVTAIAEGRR
Sequence (P0A8V2 whole entry): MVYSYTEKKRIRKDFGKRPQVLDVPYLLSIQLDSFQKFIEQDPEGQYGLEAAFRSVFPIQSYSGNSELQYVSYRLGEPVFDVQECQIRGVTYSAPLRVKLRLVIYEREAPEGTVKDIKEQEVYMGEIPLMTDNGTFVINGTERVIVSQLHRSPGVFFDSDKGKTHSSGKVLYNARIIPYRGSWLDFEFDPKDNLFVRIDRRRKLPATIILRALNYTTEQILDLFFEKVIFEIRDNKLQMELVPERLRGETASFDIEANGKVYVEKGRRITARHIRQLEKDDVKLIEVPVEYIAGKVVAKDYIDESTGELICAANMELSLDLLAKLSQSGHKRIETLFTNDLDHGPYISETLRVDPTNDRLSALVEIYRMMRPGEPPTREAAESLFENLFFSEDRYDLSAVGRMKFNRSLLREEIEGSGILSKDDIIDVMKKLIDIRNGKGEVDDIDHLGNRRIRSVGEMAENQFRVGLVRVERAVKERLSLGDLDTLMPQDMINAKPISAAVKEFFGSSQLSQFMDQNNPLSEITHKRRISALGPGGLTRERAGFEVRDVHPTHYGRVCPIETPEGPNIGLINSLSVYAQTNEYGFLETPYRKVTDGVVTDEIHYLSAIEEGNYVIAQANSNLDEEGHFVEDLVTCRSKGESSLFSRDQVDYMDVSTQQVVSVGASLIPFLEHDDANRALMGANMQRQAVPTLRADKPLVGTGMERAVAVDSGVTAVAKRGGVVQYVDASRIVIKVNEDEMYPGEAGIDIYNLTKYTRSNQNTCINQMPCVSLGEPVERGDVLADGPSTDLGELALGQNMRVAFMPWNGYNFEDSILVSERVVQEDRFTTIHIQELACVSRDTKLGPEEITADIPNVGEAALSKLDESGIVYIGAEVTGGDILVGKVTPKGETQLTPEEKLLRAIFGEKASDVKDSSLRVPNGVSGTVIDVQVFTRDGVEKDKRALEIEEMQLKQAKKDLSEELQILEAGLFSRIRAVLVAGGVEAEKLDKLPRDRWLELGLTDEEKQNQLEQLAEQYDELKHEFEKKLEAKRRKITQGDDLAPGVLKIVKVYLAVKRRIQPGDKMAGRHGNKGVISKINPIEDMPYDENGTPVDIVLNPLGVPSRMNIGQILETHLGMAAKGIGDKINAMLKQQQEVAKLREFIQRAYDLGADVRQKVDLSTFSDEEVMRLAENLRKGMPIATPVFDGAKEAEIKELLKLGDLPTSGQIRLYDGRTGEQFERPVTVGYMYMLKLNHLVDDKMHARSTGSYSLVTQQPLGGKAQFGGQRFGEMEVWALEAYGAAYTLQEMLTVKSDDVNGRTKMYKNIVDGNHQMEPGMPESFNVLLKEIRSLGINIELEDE
Sequence (P00579 whole entry, further chain): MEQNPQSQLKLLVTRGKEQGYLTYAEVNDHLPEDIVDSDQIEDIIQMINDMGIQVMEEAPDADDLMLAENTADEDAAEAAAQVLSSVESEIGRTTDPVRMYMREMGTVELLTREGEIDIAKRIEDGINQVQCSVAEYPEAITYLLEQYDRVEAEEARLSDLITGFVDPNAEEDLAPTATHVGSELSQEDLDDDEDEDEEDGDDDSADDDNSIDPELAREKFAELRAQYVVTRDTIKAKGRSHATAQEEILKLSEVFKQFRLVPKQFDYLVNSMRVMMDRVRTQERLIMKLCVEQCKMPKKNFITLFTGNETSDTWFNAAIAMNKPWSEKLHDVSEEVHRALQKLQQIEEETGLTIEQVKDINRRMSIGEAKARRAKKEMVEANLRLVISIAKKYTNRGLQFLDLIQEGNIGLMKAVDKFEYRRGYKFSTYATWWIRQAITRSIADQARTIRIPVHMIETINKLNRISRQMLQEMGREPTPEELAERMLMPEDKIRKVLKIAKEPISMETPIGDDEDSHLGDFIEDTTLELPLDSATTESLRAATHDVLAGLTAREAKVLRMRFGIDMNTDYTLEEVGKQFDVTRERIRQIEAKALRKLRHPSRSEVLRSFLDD
Sequence (P0A7Z4 whole entry, further chain): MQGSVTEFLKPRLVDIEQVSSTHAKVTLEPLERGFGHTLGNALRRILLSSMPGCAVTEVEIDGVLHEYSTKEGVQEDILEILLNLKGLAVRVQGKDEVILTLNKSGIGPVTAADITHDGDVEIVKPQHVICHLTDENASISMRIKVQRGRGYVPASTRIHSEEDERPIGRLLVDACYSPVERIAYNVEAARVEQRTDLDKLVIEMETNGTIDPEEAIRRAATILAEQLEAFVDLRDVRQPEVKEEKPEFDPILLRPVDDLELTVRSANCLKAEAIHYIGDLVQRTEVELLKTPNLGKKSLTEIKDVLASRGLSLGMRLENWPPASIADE
protocolDescription: Fluorescence-detected RNA polymerase assay, E. coli RNA polymerase
Type: biochemical
conditionLabel: read-out: IC50 E. coli RNAP
Numbers only, as −log10 of the molar value.

CCCOc1ccc(C=C(C)C(=O)c2c(O)cc(C(C)CC/C=C/NC(=O)OC)oc2=O)cc1 (mixture of isomers); 8.00
CCCCc1ccc2sc(C=C(C)C(=O)c3c(O)cc(C(C)CC/C=C/NC(=O)OC)oc3=O)cc2c1 (mixture of isomers); 7.70
COC(=O)N/C=C/CCC(C)c1cc(O)c(C(=O)C(C)=Cc2ccc(C)s2)c(=O)o1 (mixture of isomers); 6.00
COC(=O)N/C=C/CCC(C)c1cc(O)c(C(=O)C(C)=Cc2ccc(CCCCC(F)(F)F)s2)c(=O)o1 (mixture of isomers); 8.22
CCCc1ccc(C=C(C)C(=O)c2c(O)cc(C(C)CC/C=C/NC(=O)OC)oc2=O)s1 (mixture of isomers); 7.10

Consider the additional molecule presented here.
Query: Name the recorded pIC50 of the molecule listed here: CCCCc1cc(C)c(C=C(C)C(=O)c2c(O)cc(C(C)CC/C=C/NC(=O)OC)oc2=O)s1 (mixture of isomers)
Result: 8.05
